Experiment: Pharmacokinetics study in rats
Format: in vivo
Settings: both sexes, rat, plasma, iv, 2 mg/kg, 2 mg/kg i.v.
measured_quantity: AUC(0-t) (µM·h)
Answer in µM·h, number only, no unit symbol.

[Q] Indicate its recorded AUC(0-t); the compound in question is COCc1cc(C(=O)Nc2cc([C@H]3CC[C@@H](OC(=O)NC(C)C)C3)[nH]n2)n(C)n1 [PF-4091, reference compound]
[A] 5.34

###

Experiment: Liver microsomal stability, mouse
Type: in vitro ADME
Details: mouse; Mice liver microsomes
measured_quantity: CLint scaled (mL/min/kg)
Answer in mL/min/kg, number only, no unit symbol.

[
  {
    "compound": "COCc1cc(C(=O)Nc2cc([C@H]3CC[C@@H](OC(=O)NC(C)C)C3)[nH]n2)n(C)n1 [PF-4091, reference compound]",
    "CLint scaled (mL/min/kg)": 62.6
  }
]

Turning now to a further compound:
[Q] Indicate its recorded CLint scaled; the compound in question is CC1(C)CCN1C(=O)O[C@@H]1CC[C@H](c2cc(NC(=O)Cc3ccc(N4CCCC4=O)cc3)n[nH]2)C1
[A] 840
